Recorded pIC50 values for a group of molecules are listed next.
Target: ULK3 (UniProt Q6PHR2)
Sequence (whole entry): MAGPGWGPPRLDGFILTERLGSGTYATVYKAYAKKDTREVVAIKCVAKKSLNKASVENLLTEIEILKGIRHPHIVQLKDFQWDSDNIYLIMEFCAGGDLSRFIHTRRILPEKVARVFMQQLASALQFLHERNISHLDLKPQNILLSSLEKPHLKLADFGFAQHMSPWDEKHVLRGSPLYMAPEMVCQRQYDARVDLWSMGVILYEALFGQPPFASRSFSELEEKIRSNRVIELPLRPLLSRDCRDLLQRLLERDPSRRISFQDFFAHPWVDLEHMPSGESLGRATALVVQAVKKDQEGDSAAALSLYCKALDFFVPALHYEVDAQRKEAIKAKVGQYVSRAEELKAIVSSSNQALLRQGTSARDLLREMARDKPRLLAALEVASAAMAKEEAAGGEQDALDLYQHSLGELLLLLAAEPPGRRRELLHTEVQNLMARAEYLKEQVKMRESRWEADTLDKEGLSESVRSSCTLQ
Test: pIC50, kinobeads binding competition
Conditions: cell material: Lysate mix

[
  {
    "molecule": "CCNC(=O)c1cc(Nc2cc(C3CC3)[nH]n2)nc(N2CCN(Cc3ccc(S(=O)(=O)F)cc3)CC2)n1",
    "valueOperator": "=",
    "pIC50": 6.27
  },
  {
    "molecule": "C#CCNC(=O)c1cc(Nc2cc(C3CC3)[nH]n2)nc(N2CCN(Cc3ccc(S(=O)(=O)F)cc3)CC2)n1",
    "valueOperator": "=",
    "pIC50": 6.39
  },
  {
    "molecule": "C#CCNC(=O)c1cc(Nc2cc(C)[nH]n2)nc(N2CCN(Cc3ccc(S(=O)(=O)F)cc3)CC2)n1",
    "valueOperator": "=",
    "pIC50": 5.49
  },
  {
    "molecule": "CCNC(=O)c1cc(Nc2cc(C)[nH]n2)nc(N2CCN(Cc3ccc(S(=O)(=O)F)cc3)CC2)n1",
    "valueOperator": "=",
    "pIC50": 5.63
  },
  {
    "molecule": "Cc1cc(Nc2cc(C(=O)NCCNC(=O)OC3CC/C=C/CCC3)nc(N3CCN(Cc4ccc(S(=O)(=O)F)cc4)CC3)n2)n[nH]1 (stereo not given)",
    "valueOperator": "<",
    "pIC50": 4.52
  }
]

###

Recorded pIC50 values for a group of compounds are listed next.
Molecular target: CSF1R (UniProt P07333)
Sequence (P07333 whole entry): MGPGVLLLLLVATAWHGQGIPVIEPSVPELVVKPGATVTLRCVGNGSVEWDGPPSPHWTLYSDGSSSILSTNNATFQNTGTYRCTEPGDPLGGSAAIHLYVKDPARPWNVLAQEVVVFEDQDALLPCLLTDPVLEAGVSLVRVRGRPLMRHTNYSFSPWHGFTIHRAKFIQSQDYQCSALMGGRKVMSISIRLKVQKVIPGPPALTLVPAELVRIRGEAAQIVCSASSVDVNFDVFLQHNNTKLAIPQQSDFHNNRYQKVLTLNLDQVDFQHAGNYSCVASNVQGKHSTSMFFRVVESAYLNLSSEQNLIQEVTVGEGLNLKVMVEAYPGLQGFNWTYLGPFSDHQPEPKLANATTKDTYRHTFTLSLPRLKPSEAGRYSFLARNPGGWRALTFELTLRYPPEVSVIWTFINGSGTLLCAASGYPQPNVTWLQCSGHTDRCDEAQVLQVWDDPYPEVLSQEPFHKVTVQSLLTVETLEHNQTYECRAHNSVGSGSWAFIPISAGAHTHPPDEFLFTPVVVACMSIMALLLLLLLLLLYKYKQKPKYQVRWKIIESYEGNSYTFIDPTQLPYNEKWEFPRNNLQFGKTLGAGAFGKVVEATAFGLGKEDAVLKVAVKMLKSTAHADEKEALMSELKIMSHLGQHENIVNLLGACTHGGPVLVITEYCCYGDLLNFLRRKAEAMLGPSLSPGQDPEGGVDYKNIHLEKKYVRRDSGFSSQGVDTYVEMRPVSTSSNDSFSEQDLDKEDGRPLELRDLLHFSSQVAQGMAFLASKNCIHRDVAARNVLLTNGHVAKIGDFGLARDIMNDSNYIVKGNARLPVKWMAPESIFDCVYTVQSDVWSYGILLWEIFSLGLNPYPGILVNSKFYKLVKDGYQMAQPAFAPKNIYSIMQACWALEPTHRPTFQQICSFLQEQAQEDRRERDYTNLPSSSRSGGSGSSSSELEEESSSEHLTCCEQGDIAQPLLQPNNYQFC
Assay: pIC50, kinobeads binding competition
Details: cell material: Lysate mix
readoutType: pIC50

[
  {
    "compound": "CCNC(=O)c1cc(Nc2cc(C)[nH]n2)nc(N2CCN(Cc3ccc(S(=O)(=O)F)cc3)CC2)n1",
    "valueObserved": "< 4.52"
  },
  {
    "compound": "O=C(NCCNC(=O)c1cc(Nc2cc(C3CC3)[nH]n2)nc(N2CCN(Cc3ccc(S(=O)(=O)F)cc3)CC2)n1)OC1CC/C=C/CCC1 (stereo not given)",
    "valueObserved": "< 4.52"
  },
  {
    "compound": "C#CCNC(=O)c1cc(Nc2cc(C3CC3)[nH]n2)nc(N2CCN(Cc3ccc(S(=O)(=O)F)cc3)CC2)n1",
    "valueObserved": "< 4.52"
  },
  {
    "compound": "CCNC(=O)c1cc(Nc2cc(C3CC3)[nH]n2)nc(N2CCN(Cc3ccc(S(=O)(=O)F)cc3)CC2)n1",
    "valueObserved": "< 4.52"
  },
  {
    "compound": "Cc1cc(Nc2cc(C(=O)NCCNC(=O)OC3CC/C=C/CCC3)nc(N3CCN(Cc4ccc(S(=O)(=O)F)cc4)CC3)n2)n[nH]1 (stereo not given)",
    "valueObserved": "< 4.52"
  }
]

###

Molecular target: UniProtKB Q9UHD2
Sequence (Q9UHD2 whole entry): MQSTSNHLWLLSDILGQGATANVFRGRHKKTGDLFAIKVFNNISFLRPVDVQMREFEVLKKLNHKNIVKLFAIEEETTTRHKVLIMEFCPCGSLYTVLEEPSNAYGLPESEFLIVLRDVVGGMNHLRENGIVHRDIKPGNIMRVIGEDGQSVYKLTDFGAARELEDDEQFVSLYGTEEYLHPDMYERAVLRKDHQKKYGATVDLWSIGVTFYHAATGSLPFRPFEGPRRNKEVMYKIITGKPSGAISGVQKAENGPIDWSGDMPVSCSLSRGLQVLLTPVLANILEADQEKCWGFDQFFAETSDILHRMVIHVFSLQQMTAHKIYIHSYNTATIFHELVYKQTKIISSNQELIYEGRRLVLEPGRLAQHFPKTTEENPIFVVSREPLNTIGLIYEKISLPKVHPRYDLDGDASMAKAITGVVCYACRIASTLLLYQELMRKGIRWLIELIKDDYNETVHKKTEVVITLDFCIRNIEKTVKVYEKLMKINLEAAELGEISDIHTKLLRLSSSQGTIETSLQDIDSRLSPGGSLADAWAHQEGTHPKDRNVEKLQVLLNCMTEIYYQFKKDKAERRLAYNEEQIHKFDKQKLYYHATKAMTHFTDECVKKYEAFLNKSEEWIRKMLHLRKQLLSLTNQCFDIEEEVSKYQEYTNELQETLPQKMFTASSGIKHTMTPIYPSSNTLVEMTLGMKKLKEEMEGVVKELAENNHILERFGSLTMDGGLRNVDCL
Experiment: pIC50, kinobeads binding competition
Conditions: cell material: Lysate mix
readoutType: pIC50

[
  {
    "compound": "O=C(NCCNC(=O)c1cc(Nc2cc(C3CC3)[nH]n2)nc(N2CCN(Cc3ccc(S(=O)(=O)F)cc3)CC2)n1)OC1CC/C=C/CCC1 (stereo not given)",
    "testTarget": "UniProtKB Q9UHD2",
    "readoutType": "pIC50",
    "valueOperator": "<",
    "valueObserved": 4.52
  },
  {
    "compound": "C#CCNC(=O)c1cc(Nc2cc(C3CC3)[nH]n2)nc(N2CCN(Cc3ccc(S(=O)(=O)F)cc3)CC2)n1",
    "testTarget": "UniProtKB Q9UHD2",
    "readoutType": "pIC50",
    "valueOperator": "=",
    "valueObserved": 5.28
  },
  {
    "compound": "C#CCNC(=O)c1cc(Nc2cc(C)[nH]n2)nc(N2CCN(Cc3ccc(S(=O)(=O)F)cc3)CC2)n1",
    "testTarget": "UniProtKB Q9UHD2",
    "readoutType": "pIC50",
    "valueOperator": "<",
    "valueObserved": 4.52
  },
  {
    "compound": "CCNC(=O)c1cc(Nc2cc(C3CC3)[nH]n2)nc(N2CCN(Cc3ccc(S(=O)(=O)F)cc3)CC2)n1",
    "testTarget": "UniProtKB Q9UHD2",
    "readoutType": "pIC50",
    "valueOperator": "=",
    "valueObserved": 5.34
  },
  {
    "compound": "Cc1cc(Nc2cc(C(=O)NCCNC(=O)OC3CC/C=C/CCC3)nc(N3CCN(Cc4ccc(S(=O)(=O)F)cc4)CC3)n2)n[nH]1 (stereo not given)",
    "testTarget": "UniProtKB Q9UHD2",
    "readoutType": "pIC50",
    "valueOperator": "<",
    "valueObserved": 4.52
  }
]

###

Target: SGK2 (UniProt Q9HBY8)
Sequence (Q9HBY8 whole entry): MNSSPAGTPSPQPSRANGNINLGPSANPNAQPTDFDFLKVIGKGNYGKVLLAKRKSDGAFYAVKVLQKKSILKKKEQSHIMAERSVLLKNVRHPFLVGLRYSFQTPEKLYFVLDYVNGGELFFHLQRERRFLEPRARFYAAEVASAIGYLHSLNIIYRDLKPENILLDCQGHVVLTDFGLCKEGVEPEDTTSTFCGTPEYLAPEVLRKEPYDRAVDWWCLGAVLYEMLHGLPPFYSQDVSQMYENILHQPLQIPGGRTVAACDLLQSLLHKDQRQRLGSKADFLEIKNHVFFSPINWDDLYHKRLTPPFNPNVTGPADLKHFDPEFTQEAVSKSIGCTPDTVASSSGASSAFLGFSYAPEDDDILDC
Assay: pIC50, kinobeads binding competition
Details: cell material: Lysate mix
Recorded pIC50 values for a group of compounds are listed next.
readoutType: pIC50

[
  {
    "compound": "Cc1cc(Nc2cc(C(=O)NCCNC(=O)OC3CC/C=C/CCC3)nc(N3CCN(Cc4ccc(S(=O)(=O)F)cc4)CC3)n2)n[nH]1 (stereo not given)",
    "valueObserved": "< 4.52"
  },
  {
    "compound": "C#CCNC(=O)c1cc(Nc2cc(C)[nH]n2)nc(N2CCN(Cc3ccc(S(=O)(=O)F)cc3)CC2)n1",
    "valueObserved": 5.8
  },
  {
    "compound": "CCNC(=O)c1cc(Nc2cc(C)[nH]n2)nc(N2CCN(Cc3ccc(S(=O)(=O)F)cc3)CC2)n1",
    "valueObserved": 5.46
  },
  {
    "compound": "CCNC(=O)c1cc(Nc2cc(C3CC3)[nH]n2)nc(N2CCN(Cc3ccc(S(=O)(=O)F)cc3)CC2)n1",
    "valueObserved": 5.7
  },
  {
    "compound": "C#CCNC(=O)c1cc(Nc2cc(C3CC3)[nH]n2)nc(N2CCN(Cc3ccc(S(=O)(=O)F)cc3)CC2)n1",
    "valueObserved": 6.52
  }
]

###

Recorded pIC50 values for a group of molecules are listed next.
Target: UniProt P68400
Sequence (P68400 whole entry, looked up): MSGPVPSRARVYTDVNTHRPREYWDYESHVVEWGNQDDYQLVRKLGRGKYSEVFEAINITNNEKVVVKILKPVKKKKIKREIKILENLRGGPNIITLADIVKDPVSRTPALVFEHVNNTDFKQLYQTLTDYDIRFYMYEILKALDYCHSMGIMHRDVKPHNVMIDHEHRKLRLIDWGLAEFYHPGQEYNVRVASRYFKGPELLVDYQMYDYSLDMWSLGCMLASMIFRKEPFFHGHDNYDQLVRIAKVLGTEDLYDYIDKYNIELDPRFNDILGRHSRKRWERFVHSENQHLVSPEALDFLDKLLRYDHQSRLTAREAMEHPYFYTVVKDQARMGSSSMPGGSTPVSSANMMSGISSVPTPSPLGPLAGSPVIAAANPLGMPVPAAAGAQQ
Assay: pIC50, kinobeads binding competition
Conditions: cell material: Lysate mix

[
  {
    "molecule": "C#CCNC(=O)c1cc(Nc2cc(C3CC3)[nH]n2)nc(N2CCN(Cc3ccc(S(=O)(=O)F)cc3)CC2)n1",
    "valueOperator": "=",
    "pIC50": 5.02
  },
  {
    "molecule": "Cc1cc(Nc2cc(C(=O)NCCNC(=O)OC3CC/C=C/CCC3)nc(N3CCN(Cc4ccc(S(=O)(=O)F)cc4)CC3)n2)n[nH]1 (stereo unspecified)",
    "valueOperator": "<",
    "pIC50": 4.52
  },
  {
    "molecule": "CCNC(=O)c1cc(Nc2cc(C)[nH]n2)nc(N2CCN(Cc3ccc(S(=O)(=O)F)cc3)CC2)n1",
    "valueOperator": "=",
    "pIC50": 5.15
  },
  {
    "molecule": "O=C(NCCNC(=O)c1cc(Nc2cc(C3CC3)[nH]n2)nc(N2CCN(Cc3ccc(S(=O)(=O)F)cc3)CC2)n1)OC1CC/C=C/CCC1 (stereo unspecified)",
    "valueOperator": "<",
    "pIC50": 4.52
  },
  {
    "molecule": "CCNC(=O)c1cc(Nc2cc(C3CC3)[nH]n2)nc(N2CCN(Cc3ccc(S(=O)(=O)F)cc3)CC2)n1",
    "valueOperator": "=",
    "pIC50": 5.39
  },
  {
    "molecule": "C#CCNC(=O)c1cc(Nc2cc(C)[nH]n2)nc(N2CCN(Cc3ccc(S(=O)(=O)F)cc3)CC2)n1",
    "valueOperator": "=",
    "pIC50": 4.89
  }
]
